Origin of values: ChEMBL document CHEMBL1914413

- Tested on: MDA-MB-231
- ASSAY COMMENT: Cytotoxicity against human MDA-MB-231 cells after 3 days by MTT assay
- Format: functional, cell-based
- CONDITION INFO: MDA-MB-231, 72 h
METRIC: IC50 (µM)
Write down the numeric answer in µM and omit the unit.

Q: Identify IC50 associated with the compound `COc1cc(O)ccc1C(=O)/C=C/c1ccc(O)cc1`
Ans: 44.4

###

- Test system: A549
- ASSAY COMMENT: Cytotoxicity against human A549 cells after 3 days by MTT assay
- Assay type: functional, cell-based
- CONDITION INFO: A549, 72 h
METRIC: pIC50
# pIC50 is unitless: minus log10 of the molar concentration; print number only

Q: Identify pIC50 associated with the compound `O=C1c2ccc(O)cc2OC[C@@H]1O`
Ans: 4.09

We now examine a further compound.
Q: Identify pIC50 associated with the compound `COc1cc(O)ccc1C(=O)/C=C/c1ccc(O)cc1`
Ans: 4.49
